// provenance: patent US20180066015A1

Measurement Target: T1, matriptase (Charles Craik, UCSF), recombinant (Homo sapiens (Human)) (UniProt Q9Y5Y6)
T1 sequence: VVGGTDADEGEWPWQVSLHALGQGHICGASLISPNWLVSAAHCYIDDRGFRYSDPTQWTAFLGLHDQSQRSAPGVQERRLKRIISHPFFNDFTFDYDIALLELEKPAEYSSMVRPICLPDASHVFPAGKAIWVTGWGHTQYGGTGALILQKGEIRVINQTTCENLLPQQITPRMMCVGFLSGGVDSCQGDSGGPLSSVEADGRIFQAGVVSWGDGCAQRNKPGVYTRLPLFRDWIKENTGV
*: point of attachment. ketothiazole = C-terminal ketothiazole (kt), c1csc(*)n1; kt = C-terminal ketothiazole, c1csc(*)n1
Endpoint Name: IC50 of enzyme inhibition

Binder	Observed Measurement
Ac-SKFR-kt (SMILES CC(=O)N[C@@H](CO)C(=O)N[C@@H](CCCCN)C(=O)N[C@@H](Cc1ccccc1)C(=O)N[C@@H](CCCNC(=N)N)C(=O)c1nccs1) [Ac-SKFR(SEQ ID NO: 13)-kt]	34 nM
Ac-KRLR-kt (SMILES CC(=O)N[C@@H](CCCCN)C(=O)N[C@@H](CCCNC(=N)N)C(=O)N[C@@H](CC(C)C)C(=O)N[C@@H](CCCNC(=N)N)C(=O)c1nccs1) [Ac-KRLR(SEQ ID NO: 8)-kt]	14 nM
Ac-SWLR-kt (SMILES CC(=O)N[C@@H](CO)C(=O)N[C@@H](Cc1c[nH]c2ccccc12)C(=O)N[C@@H](CC(C)C)C(=O)N[C@@H](CCCNC(=N)N)C(=O)c1nccs1) [Ac-SWLR(SEQ ID NO: 17)-kt]	175 nM
LLR (N-terminal acetyl; C-terminus printed as -H) [Leupeptin (Ac-LLR-H)]	1150 nM
Ac-KFLR-ketothiazole (SMILES CC(=O)N[C@@H](CCCCN)C(=O)N[C@@H](Cc1ccccc1)C(=O)N[C@@H](CC(C)C)C(=O)N[C@@H](CCCNC(=N)N)C(=O)c1nccs1) [Ac-KFLR(SEQ ID NO: 5)-kt]	35 nM
